Listed here: items and their measured IC50.
test system: RKO control cells; conditions: read-out: IC50 RKO control
Numbered stars: 1 amine (or outer) side, 2 acyl side, 3 side chain; on linkers, the order of the positions; unused ones are H or OH. Bridge positions count the residues as written; N and C are the ends. Square brackets hold non-standard residues; d marks the D form. Peptide text beside a SMILES is read from it. Adda = CO[C@@H](Cc1ccccc1)[C@@H](C)/C=C(C)/C=C/[C@H](N[*:1])[C@H](C)C(=O)[*:2]; dAsp(3S-Me) = C[C@H](C(=O)[*:3])[C@@H](N[*:1])C(=O)[*:2]; d(γGlu) = O=C(O)[C@@H](CCC(=O)[*:2])N[*:1]; NMeDha = C=C(NC)C(=O)O

molecule: C=C1C(=O)N[C@H](C)C(=O)N[C@@H](Cc2ccc(O)cc2)C(=O)N[C@@H](C(=O)O)[C@H](C)C(=O)N[C@@H](CCCNC(=N)N)C(=O)N[C@@H](/C=C/C(C)=C/[C@H](C)[C@H](Cc2ccccc2)OC)[C@H](C)C(=O)N[C@@H](C(=O)OC)CCC(=O)N1C [compound 22, [D-Glu(OMe)^6]MC-YR]
IC50: > 1000 nM
--
molecule: C=C1C(=O)N[C@H](C)C(=O)N[C@@H](CC(C)C)C(=O)N[C@@H](C(=O)O)CC(=O)N[C@@H](CCCNC(=N)N)C(=O)N[C@@H](/C=C/C(C)=C/[C@H](C)[C@H](Cc2ccccc2)OC)[C@H](C)C(=O)N[C@@H](C(=O)O)CCC(=O)N1C [compound 2, [D-Asp^3]MC-LR]
IC50: > 1000 nM
--
molecule: C=C1C(=O)N[C@H](C)C(=O)N[C@@H](CC(C)C)C(=O)N[C@@H](C(=O)O)[C@H](C)C(=O)N[C@@H](Cc2c[nH]c3ccccc23)C(=O)N[C@@H](/C=C/C(C)=C/[C@H](C)[C@H](Cc2ccccc2)OC)[C@H](C)C(=O)N[C@@H](C(=O)O)CCC(=O)N1C [compound 8, LW, reference compound] (W[Adda][d(γGlu)][NMeDha][dA]L[dAsp(3S-Me)]-OH; lactam N-7)
IC50: > 1000 nM
--
molecule: C=C1C(=O)N[C@H](C)C(=O)N[C@@H](CCCNC(=N)N)C(=O)N[C@@H](C(=O)O)[C@H](C)C(=O)N[C@@H](Cc2ccccc2)C(=O)N[C@@H](/C=C/C(C)=C/[C@H](C)[C@H](Cc2ccccc2)OC)[C@H](C)C(=O)N[C@@H](C(=O)O)CCC(=O)N1C [compound 12, MC-RF] (F[Adda][d(γGlu)][NMeDha][dA]R[dAsp(3S-Me)]-OH; lactam N-7)
IC50: > 1000 nM
--
molecule: C/C=C1/NC(=O)CC[C@H](C(=O)O)NC(=O)[C@@H](C)[C@H](/C=C/C(C)=C/[C@H](C)[C@H](Cc2ccccc2)OC)NC(=O)[C@H](CCCNC(=N)N)NC(=O)C[C@H](C(=O)O)NC(=O)[C@H](Cc2ccc(O)cc2)NC(=O)[C@@H](C)NC1=O [compound 15, [D-Asp^3,(E)-Dhb^7]MC-YR]
IC50: > 1000 nM
--
molecule: CC=C1C(=O)N[C@@H](C(=O)O)[C@H](C)C(=O)N[C@@H](CCCNC(=N)N)C(=O)N[C@@H](/C=C/C(C)=C/[C@H](C)[C@H](Cc2ccccc2)OC)[C@H](C)C(=O)N[C@@H](C(=O)O)CCC(=O)N1C [compound 23, Nodularin]
IC50: > 100 nM
